Target: IDO (Homo sapiens)
Sequence (P14902 whole entry): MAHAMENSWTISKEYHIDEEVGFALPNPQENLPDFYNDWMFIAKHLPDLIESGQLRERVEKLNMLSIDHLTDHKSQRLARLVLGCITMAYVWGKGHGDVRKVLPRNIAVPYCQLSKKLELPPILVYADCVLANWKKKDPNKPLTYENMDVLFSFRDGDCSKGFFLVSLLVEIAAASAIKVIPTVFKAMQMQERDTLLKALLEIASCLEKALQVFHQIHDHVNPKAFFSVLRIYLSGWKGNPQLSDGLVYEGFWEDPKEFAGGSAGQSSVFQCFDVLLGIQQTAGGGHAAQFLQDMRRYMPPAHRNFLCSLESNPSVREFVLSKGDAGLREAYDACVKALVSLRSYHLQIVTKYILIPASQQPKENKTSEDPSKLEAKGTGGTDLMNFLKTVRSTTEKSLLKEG
Experiment: SKOV3 kynurenine cell-based assay (IDO induced by IFN-γ)
Set-up: IDO expression was induced in the SKOV3 cells by the addition of 500 ng/ml IFN-γ; endogenous in cells; host or cells: SKOV3 (human ovarian adenocarcinoma), induced with IFN-γ
Details: SKOV3 human ovarian adenocarcinoma cells, 500 ng/ml IFN-γ, 48 hours, 500 μM L-tryptophan; read-out: SKOV3 Kynurenine cell based assay pIC50 (converted)
test readout: IC50

INPUT: Fill in: IC50 of Clc1cc(N2CCC(c3ncc[nH]3)CC2)c2cn[nH]c2c1 is ___
OUTPUT: 3.24 to 31.6 µM

More entries:
INPUT: Fill in: IC50 of O=C1NCC2(CCN(c3cc(Cl)cc4[nH]ncc34)CC2)O1 is ___
OUTPUT: 3.24 to 31.6 µM

INPUT: Check Clc1cc(N2CCc3[nH]ncc3C2)c2cn[nH]c2c1 too.
OUTPUT: 3.24 to 31.6 µM

INPUT: Check CC(=O)N1CCC(c2cc(C(F)(F)F)cc3[nH]ncc23)CC1 too.
OUTPUT: 3.24 to 31.6 µM

---

Examples of molecules with documented IC50 follow.
Target: IDO (Homo sapiens)
Test: hIDO biochemical coupled assay
Settings: 45 μM L-tryptophan, 17 minutes, room temperature; read-out: hIDO biochemical assay pIC50 (converted)

INPUT: Fill in: IC50 of CS(=O)(=O)N1CCC2(CCN(c3cc(Cl)cc4[nH]ncc34)CC2)C1 [Compound 349] is ___
OUTPUT: 32.4 to 100 µM

More entries:
INPUT: Fill in: IC50 of CC1(C)CN(c2cc(Cl)cc3[nH]ncc23)CCN1S(C)(=O)=O [Compound 45] is ___
OUTPUT: < 3.16 µM

INPUT: Check CNC(=O)C1CCN(c2cc(Cl)cc3[nH]ncc23)CC1 [Compound 249] too.
OUTPUT: 3.24 to 31.6 µM

INPUT: Check CC(=O)N1CCOC2(CCN(c3cc(Cl)cc4[nH]ncc34)CC2)C1 [Compound 409] too.
OUTPUT: 32.4 to 100 µM

---

Target: TDO (Homo sapiens)
Assay: A172 kynurenine cell-based assay
Parameters: This assay utilised cancer cells which expressed either TDO or IDO; endogenous in cells; host or cells: A172 (human glioblastoma)
Conditions: A172 human glioblastoma cells, 48 hours, 500 μM L-tryptophan; read-out: A172 Kynurenine cell based assay pIC50 (converted)
Examples of molecules with documented IC50 follow.

Here's what some known entries look like.
INPUT: Fill in: IC50 of CC(=O)N(C)C1CCN(c2cc(Cl)cc3[nH]ncc23)C1 (stereo not drawn) is ___
OUTPUT: < 3.16 µM

INPUT: Check CS(=O)(=O)N1CCC2(CCN(c3cc(Cl)cc4[nH]ncc34)CC2)C1 too.
OUTPUT: < 3.16 µM

INPUT: Check CS(=O)(=O)N1CCN(c2cc(C(F)(F)F)cc3[nH]ncc23)C2CCCCC21 (single isomer, unassigned) [Compound 415] too.
OUTPUT: 3.24 to 31.6 µM

More entries:
INPUT: Fill in: IC50 of CN1C(=O)[C@@H]2CC[C@H]1CN(c1cc(Cl)cc3[nH]ncc13)C2 is ___
OUTPUT: < 3.16 µM

INPUT: Check CN(C)C(=O)C1CCN(c2cc(Cl)cc3[nH]ncc23)CC1 too.
OUTPUT: 3.24 to 31.6 µM

INPUT: Check CC(=O)Nc1ccc(-c2cc(Cl)cc3[nH]ncc23)cc1 too.
OUTPUT: < 3.16 µM

INPUT: Check Clc1cc(N2C[C@H]3CC[C@@H](C2)NC3)c2cn[nH]c2c1 too.
OUTPUT: < 3.16 µM

INPUT: Check c1ccc(CCNc2cccc3[nH]ncc23)cc1 too.
OUTPUT: 32.4 to 100 µM

INPUT: Check Cn1ncc2c(N3CCN(S(C)(=O)=O)C(C)(C)C3)cc(Cl)cc21 too.
OUTPUT: > 100 µM

INPUT: Check CC1(C)CCC(O)(c2cc(Cl)cc3[nH]ncc23)CC1 too.
OUTPUT: < 3.16 µM

INPUT: Check CN1C(=O)[C@@H]2CC[C@H]1CN(c1cc(C(F)(F)F)cc3[nH]ncc13)C2 too.
OUTPUT: < 3.16 µM

---

Target: TDO (Homo sapiens)
Assay: A172 kynurenine cell-based assay
Design: This assay utilised cancer cells which expressed either TDO or IDO; endogenous in cells; host or cells: A172 (human glioblastoma)
Settings: A172 human glioblastoma cells, 48 hours, 500 μM L-tryptophan; read-out: A172 Kynurenine cell based assay pIC50 (converted)
Examples of molecules with documented IC50 follow.

INPUT: Fill in: IC50 of CC(=O)N1CCN(c2cc(Cl)cc3c2cnn3C)CC1(C)C [Compound 104] is ___
OUTPUT: 3.24 to 31.6 µM

INPUT: Check CS(=O)(=O)N1CCN(c2cc(-c3ccccc3)cc3[nH]ncc23)CC1 [Compound 33] too.
OUTPUT: 3.24 to 31.6 µM

INPUT: Check CS(=O)(=O)N1CCC(Oc2cc(Cl)cc3[nH]ncc23)CC1 [Compound 159] too.
OUTPUT: 3.24 to 31.6 µM

INPUT: Check O=S(=O)(C1CC1)N1CCC(c2cc(Cl)cc3[nH]ncc23)CC1 [Compound 188] too.
OUTPUT: < 3.16 µM

# context switch: different molecule, same IC50
INPUT: Fill in: IC50 of CC(C)CN1C(=O)NC2(CCN(c3cc(Cl)cc4[nH]ncc34)CC2)C1=O [Compound 388] is ___
OUTPUT: < 3.16 µM

---

Molecular target: TDO (Homo sapiens, UniProt P48775)
Sequence (P48775 whole entry): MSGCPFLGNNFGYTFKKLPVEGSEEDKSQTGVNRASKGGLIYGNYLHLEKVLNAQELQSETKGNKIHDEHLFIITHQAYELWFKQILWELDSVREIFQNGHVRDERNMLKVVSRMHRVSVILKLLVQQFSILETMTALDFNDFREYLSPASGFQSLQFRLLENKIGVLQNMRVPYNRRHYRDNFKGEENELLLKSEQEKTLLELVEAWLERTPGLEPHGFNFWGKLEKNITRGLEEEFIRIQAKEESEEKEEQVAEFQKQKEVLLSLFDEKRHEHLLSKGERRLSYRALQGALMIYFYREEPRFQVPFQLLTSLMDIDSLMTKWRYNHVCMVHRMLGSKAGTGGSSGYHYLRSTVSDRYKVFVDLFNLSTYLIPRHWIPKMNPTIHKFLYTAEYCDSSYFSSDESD
Assay: A172 kynurenine cell-based assay
Design: This assay utilised cancer cells which expressed either TDO or IDO; endogenous in cells; host or cells: A172 (human glioblastoma)
Details: A172 human glioblastoma cells, 48 hours, 500 μM L-tryptophan; read-out: A172 Kynurenine cell based assay pIC50 (converted)
Examples of molecules with documented IC50 follow.

Here's what some known entries look like.
INPUT: Fill in: IC50 of CC(=O)N1CCN(c2cc(Cl)cc3[nH]ncc23)CC1C (stereo not shown) is ___
OUTPUT: < 3.16 µM

INPUT: Check CS(=O)(=O)N1CCCN(c2cccc3[nH]ncc23)CC1 too.
OUTPUT: 3.24 to 31.6 µM

INPUT: Check CN(C)C(=O)C1CCN(c2cc(Cl)cc3[nH]ncc23)C1 (stereo not shown) too.
OUTPUT: 3.24 to 31.6 µM

INPUT: Check CS(=O)(=O)c1ccc(Oc2cc(Cl)cc3[nH]ncc23)cc1 too.
OUTPUT: 3.24 to 31.6 µM

INPUT: Check CN(C)C(=O)N1CCC(c2cc(Cl)cc3[nH]ncc23)CC1 too.
OUTPUT: < 3.16 µM

INPUT: Check CC(=O)NCC1CCN(c2cc(Cl)cc3[nH]ncc23)CC1 too.
OUTPUT: < 3.16 µM

INPUT: Check CC1(C)CN(c2cc(-c3ncco3)cc3[nH]ncc23)CCN1S(C)(=O)=O too.
OUTPUT: 3.24 to 31.6 µM

INPUT: Check O=S(=O)(C1CCCC1)N1CCN(c2cc(Cl)cc3[nH]ncc23)CC1 too.
OUTPUT: < 3.16 µM

INPUT: Check CC(=O)N1CCC(Oc2cc(Cl)cc3[nH]ncc23)CC1 too.
OUTPUT: < 3.16 µM

INPUT: Check CC(C)(F)C(=O)N1CCN(c2cc(Cl)cc3[nH]ncc23)CC1 too.
OUTPUT: < 3.16 µM

More entries:
INPUT: Fill in: IC50 of CC(C)(C)CC(=O)Nc1cccc2[nH]ncc12 is ___
OUTPUT: 32.4 to 100 µM

INPUT: Check CC(O)c1cc(Cl)cc2[nH]ncc12 (stereo not shown) too.
OUTPUT: < 3.16 µM

---

Target: TDO (Homo sapiens)
Assay: A172 kynurenine cell-based assay
Parameters: This assay utilised cancer cells which expressed either TDO or IDO; endogenous in cells; host or cells: A172 (human glioblastoma)
Conditions: A172 human glioblastoma cells, 48 hours, 500 μM L-tryptophan; read-out: A172 Kynurenine cell based assay pIC50 (converted)
test readout: IC50

INPUT: Fill in: IC50 of Clc1cc(N2CCOCC2)c2cn[nH]c2c1 is ___
OUTPUT: 3.24 to 31.6 µM

INPUT: Check CCC(=O)N1CCN(c2cc(Cl)cc3[nH]ncc23)CC1 too.
OUTPUT: < 3.16 µM

INPUT: Check Cc1cc(S(C)(=O)=O)ccc1-c1cc(Cl)cc2[nH]ncc12 too.
OUTPUT: < 3.16 µM

INPUT: Check Cn1ncc2c1CN(c1cc(Cl)cc3[nH]ncc13)CC2 too.
OUTPUT: < 3.16 µM

INPUT: Check CC(=O)N1CC2(C1)CN(c1cc(Cl)cc3[nH]ncc13)C2 too.
OUTPUT: < 3.16 µM

INPUT: Check Cn1cc2c(n1)CCN(c1cc(Cl)cc3[nH]ncc13)C2 too.
OUTPUT: < 3.16 µM

INPUT: Check Clc1cc(N2CCN(c3ccncc3)CC2)c2cn[nH]c2c1 too.
OUTPUT: < 3.16 µM

INPUT: Check CC(=O)Nc1cccc2[nH]ncc12 too.
OUTPUT: 32.4 to 100 µM

# context switch: different compound, same IC50
INPUT: Fill in: IC50 of CS(=O)(=O)N1CCN(c2cc(Cl)cc3[nH]ncc23)C2CCCCC21 (single isomer, unassigned) [Compound 386] is ___
OUTPUT: 3.24 to 31.6 µM
